Entries and their Molare Kreuzreaktivität CBZ (SAFIA)
Tested on: anti-CBZ mAb
experiment.summary: SAFIA (indirect competitive particle-based suspension array fluorescence immunoassay), CBZ channel
Format: binding, Maus
condition.info: method of Abraham; SAFIA, anti-CBZ antibody

Before answering, review these 10 worked examples.
# compound, tested.system, Molare Kreuzreaktivität CBZ (SAFIA)
measured = [
    ("Cn1c(=O)[nH]c2ncn(C)c2c1=O [Paraxanthin]", "anti-CBZ mAb", "<0,1%"),
    ("NC(=O)N1c2ccccc2C(O)C(O)c2ccccc21 (stereo not shown) [10,11-Dihydroxy-carbamazepin]", "anti-CBZ mAb", "0,3%"),
    ("O=C(O)COC(=O)Cc1ccccc1Nc1c(Cl)cccc1Cl [Aceclofenac]", "anti-CBZ mAb", "<0,1%"),
    ("Cn1c(=O)c2[nH]cnc2n(C)c1=O [Theophyllin]", "anti-CBZ mAb", "<0,1%"),
    ("NC(=O)N1c2ccccc2C=Cc2ccc(O)cc21 [3-Hydroxycarbamazepin]", "anti-CBZ mAb", "20,2%"),
    ("O=C(O)Cc1ccccc1Nc1c(Cl)cccc1Cl [DCF, Diclofenac]", "anti-CBZ mAb", "<0,1%"),
    ("Cn1c(=O)c2c(ncn2C)n(C)c1=O [CAF, Coffein]", "anti-CBZ mAb", "<0,1%"),
    ("NC(=O)N1c2ccccc2C2OC2c2ccccc21 (stereo not shown) [10,11-Epoxycarbamazepin]", "anti-CBZ mAb", "117%"),
    ("C[C@H](CCC(=O)NCCS(=O)(=O)O)[C@H]1CC[C@H]2[C@@H]3CC[C@@H]4C[C@H](O)CC[C@]4(C)[C@H]3CC[C@]12C [Taurolithocholsäure]", "anti-CBZ mAb", "<0,1%"),
    ("C[C@H](CCC(=O)O)[C@H]1CC[C@H]2[C@@H]3CC[C@@H]4C[C@H](O)CC[C@]4(C)[C@H]3CC[C@]12C [Lithocholsäure]", "anti-CBZ mAb", "<0,1%"),
]

Query: Dear colleague, I am looking for the recorded Molare Kreuzreaktivität CBZ (SAFIA) of the following compound: C[C@H](CCC(=O)O)[C@H]1CC[C@H]2[C@@H]3[C@H](O)C[C@@H]4C[C@H](O)CC[C@]4(C)[C@H]3C[C@H](O)[C@]12C [Cholsäure]
Reply: <0,1%

Query: May I ask what Molare Kreuzreaktivität CBZ (SAFIA) has been recorded for NC(=O)N1c2ccccc2C=Cc2ccccc21 [CBZ, Carbamazepin] ?
Reply: 100%

Query: State the recorded Molare Kreuzreaktivität CBZ (SAFIA) for this entry: O=C(O)Cc1cc(O)ccc1Nc1c(Cl)cccc1Cl [5'-Hydroxydiclofenac]
Reply: <0,1%

Query: Please look up its Molare Kreuzreaktivität CBZ (SAFIA): O=C(O)Cc1ccccc1Nc1c(Cl)cc(O)cc1Cl [4'-Hydroxydiclofenac]
Reply: <0,1%

Query: If you can, please state the reported Molare Kreuzreaktivität CBZ (SAFIA) value of C[C@H](CCC(=O)O)[C@H]1CC[C@H]2[C@@H]3CC[C@@H]4C[C@@H](O)CC[C@]4(C)[C@H]3CC[C@]12C [ILA, Isolithocholsäure] .
Reply: <0,1%

Query: Please give the measured Molare Kreuzreaktivität CBZ (SAFIA) for this compound: Cn1cnc2c1c(=O)[nH]c(=O)n2C [Theobromin]
Reply: <0,1%
